system: MS2 coat protein; test: apparent KD of MS2 coat protein, switch ON state; designed switch direction (-1 OFF switch, 1 ON switch): -1; higher = weaker reporter binding; conditions: FMN input: 0 or 200 uM; Eterna round: R93 (includes R88 designs)
readout type: apparent KD of MS2 coat protein (µM)
Your answer is read as µM, so omit the unit and give the number.

| record sequence | apparent KD of MS2 coat protein [µM] |
| --- | --- |
| UUAAUAGUAGGAUAUACAUGAGGAUCACCCAUGUAGCAACUACACAAAGGAACCUGAUGUAGAAGGACUUCCAG [Attionuson] | 0.0124 |
| AACAGACAUGAGGAUCACCCAUGUGAGGAUAUCCCAAUCGAUAGAACUAGAAUGACAAGGAGAAGGCACAGCAA [JR_Exc001_Sub005] | 0.0701 |
| AAAGUGUGAGGAUAUGUCAAAGGUCACGAAAGUGACAAAGGACAGAAGGUACAUGAGGAUCACCCAUGUAAAAA [65% + different segment] | 0.0398 |
| AACCGACAUGAGGAUCACCCAUGUAAGGAUAUGCAUCCUUCGGCCCGGACCAGAGGAAGCAGAAGGUGCAGGGA [Iscegebia] | 0.0431 |

Please examine the following record next.
Request: Item: AAGAGUAGAGGAUAUACGAAAAAAGAGUCGAAAGACUCGGGACAUGAGGAUCACCCAUGUAGAAGGCUACUCAA [Hyphema Seclusion Mod 62% 5] Test system: MS2 coat protein Read-out: apparent KD of MS2 coat protein Value: ?
Response: 0.022

====

system: K4 kissing-loop RNA reporter; test: apparent KD of K4 kissing-loop reporter; higher = weaker reporter binding; settings: Eterna round: R107; input ligand: theophylline 20 uM;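 also: bound reporter read as fluorescence of individual clusters on recovered sequencing chips by microscopy, with normalized cluster intensities fitted with a binding model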
# if value of apparent KD of K4 kissing-loop reporter reaches 0.2 µM, tag Criterion met; if it stays below, tag Criterion not met

Request: Does the reported apparent KD of K4 kissing-loop reporter for CUCGAGUGAUGUUCGAUUAUUUAUACAGAUACCAGUGAAUUUUAACACCCUUGGCAGCUGGUAGUAUCGUUGUAAUUUACACAAG [JR_ExcTheophyA_Sub004] fall at or above the 0.2 µM mark?
Response: Criterion not met

Request: Does the reported apparent KD of K4 kissing-loop reporter for GGAUGCAUAGUAGAUACCAGCAAGCUCGGAUAGUGAUGUUGUUCGCAGUCAUUUCGGUAGUGCCCUUGGCAGCUAGACGCCCGAU [theeternabot_exclusion_KL_Theo_B_36] fall at or above the 0.2 µM mark?
Response: Criterion not met

Request: Does the reported apparent KD of K4 kissing-loop reporter for CCUUUCUGUUACGAUACCAGUCUAAUAUAUUUGAUCAAUACCCUCGCCGAGUGAUGUUCGGACCCUUGGCAGCGUCUGGGACAGG [aazwmullin] fall at or above the 0.2 µM mark?
Response: Criterion met

Request: Does the reported apparent KD of K4 kissing-loop reporter for AAAAUAAACCAGUGAUGUUGGUGUCCAGAUACCAGCGGUAAAAUCCGCCCUUGGCAGCUGUGGACGUACAAAAUAAGUACGUCCU [MatMod 4 - Jieux - Same State - Theophylline A] fall at or above the 0.2 µM mark?
Response: Criterion met

Request: Does the reported apparent KD of K4 kissing-loop reporter for AAAGACUGACUGCAAUUAGCAGUCAGUCAACGAGGACCGGUACGGCCGCCACUCGGGUCCUAGAGUGAUGUUCUAAUAAUAUAAA [AK1.2 SS Tryptophan A] fall at or above the 0.2 µM mark?
Response: Criterion met

Request: Does the reported apparent KD of K4 kissing-loop reporter for GCUCAUCCGGCAGGAUAUAGGCAGGUAGAGUGAUGUUCGAACUGCAGUUAUCCAUCCUUCUACCUACUAGAAGGGCCGGAUGAGC fall at or above the 0.2 µM mark?
Response: Criterion not met

====

test system: MS2 coat protein; experiment: apparent KD of MS2 coat protein; higher = weaker reporter binding; details: Eterna round: R107; input ligand: theophylline 20 uM
Class (required): determined from apparent KD of MS2 coat protein; valid ranges are group A: < 30 nM; group B: ≥ 30 nM and < 50 nM; group C: ≥ 50 nM

Check out these entries, answers already filled in.
| record sequence | category |
| --- | --- |
| AGGACAUGAGGAUCACCCAUGUACACUGAAGGAGCGUCGAGAACGACAGGUAGGUCGCAGGCUAAGGAAGGUGAUGCUCAAGAAG [Exclusion Arginine A GF6] | group B |
| AAGACGGUCGGAAGGAGCGGUACAUGAGGAUCACCCAUGUACCUCUGGGCAUCCGUAGUGUGCCAGGUAGGUCGCCGAUUGCGGG [Esorbevege] | group A |
| AAUAAUAGGUGAUCUUGUGUCGUACCGUAACGAGGACCGGUACGGCCGCCACUCGAACAUGAGGAUCACCCAUGUAUGUAUGAUA [whbob_SS_trypto A_f7] | group C |
| UCGAAUGCGGCGGCCGCCACUCGCGGAUAACGAUAGCUUAACAUGAGGAUCACCCAUGUGUCAUGGAGGACCGGGCCCAUACGGU [kmkmullin] | group A |
| ACCUACACGGAGACGUGUAGGAGUAAUGAUACCAGCAUGGAGACAUGCCCUUGGCAGCGUUACAUGAGGAUCACCCAUGUACGUU [ETHA #3] | group A |
| CGUGUGCGUUCUGAUACCAGAGACAUGAGGAUCACCCAUGUCCGAUCGUCCUGCCUCAGACUCCCUUGGCAGCAGGUUUUGUGCU [Exclusion Theophylline B GF4] | group C |
| ACGAUAGGACUUGAGGAUCACCCAGGUGAUACCAGCCUGGAAACAGGCCCUUGGCAGCACUAAUACUCCAAUAACCUAUCGAAUA [TheoAX 16 #MicroSwitchBubble #AlternativeMS2] | group C |
| UAUAAAAUAACAGAUACCAGCGUGUUAUAAAACAUGAGGAUCACCCAUGUAGUGAUCAAGCGCCCUUGGCAGCUGGUAUUUUAUG [7.C] | group C |
| AUUAAUAAUAUGUAGACGGCGGAGAAGAGACGAGGACCGGUACGGCCGCCACUCGUGUUAGUUAACAUGAGGAUCACCCAUGUUA [#09 Tryptophan A Same State] | group A |
| CCUUUUAUUAAUGAUACCAGCGUAUUAAGCAUCACCUUGGACAUGAGGAUCACCCAUGUACGCCCUUGGCAGCAUACCACUGGGU [theeternabot_exclusion_MS2_Theo_B_5] | group C |

Request: Which class holds ACAUGAGGAUCACCCAUGUGGCGACUUGAUACCAGACCCGCACUAGUCCCUUGGCAGCAACUACGUGUGGGACACCCAUGUGAAG [aszkullin] ?
Response: group A

Request: Which class holds GGGUAAGAUCCGGAUACCAGCGAACAUGAGGAUCACCCAUGUGACCUAAGAUAGGCUAAACGCCCUUGGCAGCCGAAAUAGCGUU [Same State Theophylline B GF 5] ?
Response: group B

Request: Which class holds CUCCGAGGCUAUACUAUACGCCUUUGUGAUACCAGAAUAAAUAUAUUCCCUUGGCAGCAUCACAUGAGGAUCACCCAUGUGCCAU [SSTheo A #12] ?
Response: group A

Request: Which class holds AUAACCCUUGACUAAAACACUAAAUCAGUUCGAGGACCGGUACGGCCGCCACUCGUGUCAAGACAUGAGGAUCACCCAUGUACCU [Isbe] ?
Response: group B

Request: Which class holds UGUAUGUGAUCUGAUACCAGAGUGAAUAACCUGAGGAUCACCCUGGUAAGGCGAAAGCCACUCCCUUGGCAGCAGAUCGCAUACU ?
Response: group C

====

system: MS2 coat protein; test: apparent KD of MS2 coat protein; higher = weaker reporter binding; details: Eterna round: R107; input ligand: arginine 13.2 mM
The following sequences are shown together with reported apparent KD of MS2 coat protein values.

Worked examples follow.
| record sequence | measured on | apparent KD of MS2 coat protein |
| --- | --- | --- |
| ACCCAUAAUUGGGCGGGUGGAUUGAGUGAUACCAGUCGUAUACAUGACCCUUGGCAGCACCGACAUGAGGAUCACCCAUGUGCCA [Same State Theophylline A GF23] | MS2 coat protein | 25.9 nM |
| GGGUACAUCGCGGCCGCCACUCGUGUAAAUACAUGAGGAUCACCCAUGUCGAUGGAGACAUCGGCGAGGACCGGGUGAUGUACCG | MS2 coat protein | 43.1 nM |

Please examine the following record next.
Request: Bench note: what apparent KD of MS2 coat protein did GGUGGCUGGAUUGAUACCAGCCACCACCGAUAGACCACAUGAGGAUCACCCAUGUUGGGUGGCCCUUGGCAGCAGUCCAGCUGCC [#1 Same State - Theophylline B Attempt #9 (HarryS)] show?
Response: 70.5 nM

====

The following sequences are shown together with reported apparent KD of MS2 coat protein values.
tested on: MS2 coat protein; assay: apparent KD of MS2 coat protein; designed switch direction (-1 OFF switch, 1 ON switch): -1; higher = weaker reporter binding; details: Eterna round: R95; input ligand: FMN 200 uM
Phrase the answer as number then unit, nothing more needed.

Request: Bench note: what apparent KD of MS2 coat protein did GCAUCCAAUGUGAGGAUAUACCUCUGGAUACAUAGGUAGAAGGCACAUGAGGAUCACCCAUGUUCCAAGGAUGC [Fiskers BMX 4 - 30] (puzzle: Brourd's mod of Exclusion 4) show?
Response: 0.183 µM

Request: Bench note: what apparent KD of MS2 coat protein did GGUUGGCGAGGAUAUACAUGAGGAUCACCCAUGUGAGAGAAAACAGUGAGGAAGAAAAGUAGAAGGCGCUGACG [salish99_ex3_r3_024] (puzzle: Exclusion 3) show?
Response: 0.466 µM

Request: Bench note: what apparent KD of MS2 coat protein did GAAAGGGUAGGAUAUACGAAAAAAAAGGGUAGAAAAAAAACACAUGAGGAUCACCCAUGUAGAAGGACCAAAAG [salish99_ex2_r3_033] (puzzle: Exclusion 2) show?
Response: 0.0402 µM

Request: Bench note: what apparent KD of MS2 coat protein did AGAAAGGCCCAUGGCCGCAAGCUUUUUGCUUGUCUUACCACAUGAGGAUCACCCAUGUGACAUGGGCUCCUGAUAAU [Atveuser] (puzzle: Sensor v3, turn-off variant 2) show?
Response: 0.0143 µM

Request: Bench note: what apparent KD of MS2 coat protein did AAAUAAUAGAUAAAAUAAAACAUGAGGAUCACCCAUGUGGGAUGUUGAGGGUGAUACAAGCUUUUUGCUCGUCUUAU (puzzle: Sensor v3, turn-off variant 1) show?
Response: 0.233 µM

Request: Bench note: what apparent KD of MS2 coat protein did ACAAGCUUUUUGCAUCAAGCAUUAAAGUCUGUGAUCGUAACAUGAGGAUCACCCAUGUAAGUUUUAUGACGUCUUAU [JR_SV3TOV2_Sub096] (puzzle: Sensor v3, turn-off variant 2) show?
Response: 0.0248 µM

Request: Bench note: what apparent KD of MS2 coat protein did UAAUACAAGCAAAGAUCUUACAUGAGGAUCACCCAUGUGCUCGUCUUAUAAAGUACUAUCACGAAAGUGAUAGUACU [Mat - Sensor v3 - turn-off var 1 - Eli Mod - D94] (puzzle: Sensor v3, turn-off variant 1) show?
Response: 0.0293 µM
